Attribute: interaction score
- measured_target: T1, 4H932-bA
- T1 chain: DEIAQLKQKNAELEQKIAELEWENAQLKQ
- protocol_summary: two-hybrid library CCNG1;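 note: natural log of median RNA to DNA barcode read ratio; higher means stronger binding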

>  <binder>
DKIAQLEQENAELKQEIAELKWKIAQLEQ [4H2253-bA]

>  <interaction score>
-0.529

$$$$
>  <binder>
DEIAQLEQENAELKQKIAELKWENAQLEQ [4H235-bA]

>  <interaction score>
-0.974

$$$$
>  <binder>
DEIQELKKKNEELERENWELEKKIQELKR [4H918-bH]

>  <interaction score>
-1.28

$$$$
>  <binder>
DKIAQLKQKNAELKQKIAELEWEIAQLEQ [4H3041-bA]

>  <interaction score>
-0.693

$$$$
>  <binder>
DKIAQLKQEIAELEQENAELKWEIAQLEQ [4H2585-bA]

>  <interaction score>
-0.825

$$$$
>  <binder>
DKIAQLKQENAELKQEIAELEWKNAQLKQ [4H2760-bA]

>  <interaction score>
0.295

$$$$
>  <binder>
DKIAQLEQEIAELKQKNAELEWEIAQLKQ [4H2162-bA]

>  <interaction score>
-1.48

$$$$
>  <binder>
DENQQLEQKIQELKQKNQELKWKIQELKQ [4H1406-bN]

>  <interaction score>
-1.96

$$$$
>  <binder>
DEIAQLEQKIAELEQEIAELEWKNAQLKQ [4H264-bA]

>  <interaction score>
-0.419

$$$$
>  <binder>
DKIAQLKQKIAELEQKIAELKWENAQLEQ [4H2859-bA]

>  <interaction score>
-0.912

$$$$
>  <binder>
DEIAQLKQKNAELEQKIAELEWENAQLKQ [4H932-bA]

>  <interaction score>
0.694

$$$$
>  <binder>
DKIAQLKQKIAELKQKNAELEWENAQLEQ [4H2931-bA]

>  <interaction score>
-1.36

$$$$
>  <binder>
DKNAQLEQKIAELEQKIAELEWENAQLKQ [4H3364-bA]

>  <interaction score>
-0.586

$$$$
>  <binder>
DKIAQLEQKNAELEQEIAELKWENAQLKQ [4H2444-bA]

>  <interaction score>
-1.36

$$$$
